# Tested on: healthy male S.D. rats
# methodNotes: Feces production in rats over the 10-day period (Example 3)
# Format: in vivo, rat
# conditionInfo: Day 5; vs control of the same group
# Procedure: During this period, the body weights of the rats were weighed each day and recorded. Feces of each rat were studied three times during the period for any unusual observations. Specifically, the amounts of feces were weighed on Days 11, 15, 18, and 21. During observation, each rat was placed in a metabolic cage. […] The number of collected feces pellets was counted, and the pellets' shapes and colors were evaluated. […] During the 10-day period, the body weights of the rats were weighed each day and recorded. […]
valueKind: increase of the feces amount (wet weight) (%)
Only the number, expressed in %, is required.

Guide cases for increase of the feces amount (wet weight), answers given:
| compound | observedValue |
| --- | --- |
| O=C1c2cccc(O)c2C(=O)c2c(O)cc(CO)cc21 [Aloe-emodin] | 9 |
| O=C(O)c1cc(O)c2c(c1)C(=O)c1cccc(O)c1C2=O [Rhein] | −9 |
| COc1cc(O)c2c(c1)C(=O)c1cc(C)cc(O)c1C2=O [Physcion, physcion] | 57 |
| Cc1cc(O)c2c(c1)C(=O)c1cccc(O)c1C2=O [Chrysophanol, chrysophanol] | 16 |

The record that follows has no increase of the feces amount (wet weight) shown yet.
Incoming: So what does the record say about increase of the feces amount (wet weight) for Cc1cc(O)c2c(c1)C(=O)c1cc(O)cc(O)c1C2=O [Emodin] ?
Outgoing: 12

----------
Reported increase of the feces amount (wet weight) values follow for various compounds
# Test system: healthy male S.D. rats
# methodNotes: Feces production in rats over the 10-day period (Example 3)
# Type: in vivo, rat
# conditionInfo: Day 10; vs control of the same group
Only the number, expressed in %, is required.

Incoming: So what does the record say about increase of the feces amount (wet weight) for `Cc1cc(O)c2c(c1)C(=O)c1cc(O)cc(O)c1C2=O` ?
Outgoing: 4

Incoming: So what does the record say about increase of the feces amount (wet weight) for `Cc1cc(O)c2c(c1)C(=O)c1cccc(O)c1C2=O` ?
Outgoing: 14

Incoming: So what does the record say about increase of the feces amount (wet weight) for `O=C1c2cccc(O)c2C(=O)c2c(O)cc(CO)cc21` ?
Outgoing: 20

Incoming: So what does the record say about increase of the feces amount (wet weight) for `COc1cc(O)c2c(c1)C(=O)c1cc(C)cc(O)c1C2=O` ?
Outgoing: 32

Incoming: So what does the record say about increase of the feces amount (wet weight) for `O=C(O)c1cc(O)c2c(c1)C(=O)c1cccc(O)c1C2=O` ?
Outgoing: −1

----------
Reported increase of the feces amount (wet weight) values follow for various compounds
# System: healthy male S.D. rats
# methodNotes: Feces production in rats over the 10-day period (Example 3)
# Format: in vivo, rat
# conditionInfo: Day 1; vs control of the same group
Only the number, expressed in %, is required.

| cpdSmiles | observedValue |
| --- | --- |
| COc1cc(O)c2c(c1)C(=O)c1cc(C)cc(O)c1C2=O | 93 |
| O=C1c2cccc(O)c2C(=O)c2c(O)cc(CO)cc21 | 27 |
| Cc1cc(O)c2c(c1)C(=O)c1cccc(O)c1C2=O | 19 |
| O=C(O)c1cc(O)c2c(c1)C(=O)c1cccc(O)c1C2=O | 31 |

The record that follows has no increase of the feces amount (wet weight) shown yet.
Incoming: So what does the record say about increase of the feces amount (wet weight) for `Cc1cc(O)c2c(c1)C(=O)c1cc(O)cc(O)c1C2=O` ?
Outgoing: −30
